Each recorded value in this set is attributed to patent US20050101595A1.

Test system: HCT-116 cell line
Assay: Inhibition of cell growth, tetrazolium salt (MTT) assay
Format: cell-based
Conditions: Homo sapiens, HCT-116, 120 h, first HCT-116 column (c4); MTT, three to five days; read-out: HCT-116 IC50
Structures can show the parent of a compound that is named as a salt.
metric: pIC50
Please express pIC50 as -log10 of the molar concentration.

See these solved cases before continuing.
INSERT INTO results (compound, measured_result) VALUES
  ('CN1CC[C@H](Oc2ccc(S(=O)(=O)N3CCC(Nc4nc(N)c(C(=O)c5c(F)cccc5F)s4)CC3)cn2)C1 [Example H28, Hydrochloride]', 7.31),
  ('Nc1nc(NC2CCN(S(=O)(=O)CCCN3CCCC3)CC2)sc1C(=O)c1c(F)cccc1F', 6.51),
  ('Cc1ccc(S(=O)(=O)N2CCC(Nc3nc(N)c(C(=O)c4c(F)cccc4F)s3)CC2)cc1', 6.39);

Tell me the measured pIC50 of CC(C)S(=O)(=O)c1csc(C(=O)N2CCC(Nc3nc(N)c(C(=O)c4c(F)cccc4F)s3)CC2)c1Cl , please.
5.72

And for CCCN(CCCS(=O)(=O)N1CCC(Nc2nc(N)c(C(=O)c3c(F)cccc3F)s2)CC1)CC1CC1 ?
6.74

Would you mind doing Nc1nc(NC2CCN(S(=O)(=O)c3ccc(-c4cccnc4)nc3)CC2)sc1C(=O)c1c(F)cccc1F [Example I6, Hydrochloride] as well?
7.43

Thanks! And CN(C)CCS(=O)(=O)N1CCC(Nc2nc(N)c(C(=O)c3c(F)cccc3F)s2)CC1 ?
6.55

Same for CN(C)CCCS(=O)(=O)N1CCC(Nc2nc(N)c(C(=O)c3c(F)cccc3F)s2)CC1
6.39

Could you do the same for Cc1noc(C)c1S(=O)(=O)N1CCC(Nc2nc(N)c(C(=O)c3c(F)cccc3F)s2)CC1 , please?
5.85

Same again, this time with Nc1nc(NC2CCN(S(=O)(=O)c3ccc(-c4ccncc4)nc3)CC2)sc1C(=O)c1c(F)cccc1F
5.89

Now give it for Nc1nc(NC2CCN(S(=O)(=O)CCCNC3CCCCC3)CC2)sc1C(=O)c1c(F)cccc1F too.
6.17

Next record, please: Nc1nc(NC2CCN(S(=O)(=O)c3ccc(CCCN4CCCC4)nc3)CC2)sc1C(=O)c1c(F)cccc1F [Example I13, Trifluoroacetic Acid Salt]
6.55

# repeat for COc1ccc(S(=O)(=O)N2CCC(Nc3nc(N)c(C(=O)c4c(F)cccc4F)s3)CC2)cc1OC
6.80

CN(CCCS(=O)(=O)N1CCC(Nc2nc(N)c(C(=O)c3c(F)cccc3F)s2)CC1)Cc1ccco1 ?
6.77
